These data points were gathered from patent US8420630B2.

Listing: pIC50 of selected molecules
# target-desc: CDK1/cyclinB1 (Homo sapiens, UniProt P06493)
# Construct: made in house; host or cells: High Five insect cells (Trichoplusia ni), baculovirus coinfection
# Sequence (P06493 whole entry): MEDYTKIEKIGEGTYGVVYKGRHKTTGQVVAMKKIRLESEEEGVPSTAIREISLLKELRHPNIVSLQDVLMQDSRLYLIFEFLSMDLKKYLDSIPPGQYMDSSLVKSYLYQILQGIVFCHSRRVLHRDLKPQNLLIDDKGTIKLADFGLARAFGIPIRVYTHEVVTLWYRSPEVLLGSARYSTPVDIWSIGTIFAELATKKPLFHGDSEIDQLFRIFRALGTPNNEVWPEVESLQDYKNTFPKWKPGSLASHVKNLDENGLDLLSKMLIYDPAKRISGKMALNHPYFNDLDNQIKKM
# Sequence (P14635 whole entry partner): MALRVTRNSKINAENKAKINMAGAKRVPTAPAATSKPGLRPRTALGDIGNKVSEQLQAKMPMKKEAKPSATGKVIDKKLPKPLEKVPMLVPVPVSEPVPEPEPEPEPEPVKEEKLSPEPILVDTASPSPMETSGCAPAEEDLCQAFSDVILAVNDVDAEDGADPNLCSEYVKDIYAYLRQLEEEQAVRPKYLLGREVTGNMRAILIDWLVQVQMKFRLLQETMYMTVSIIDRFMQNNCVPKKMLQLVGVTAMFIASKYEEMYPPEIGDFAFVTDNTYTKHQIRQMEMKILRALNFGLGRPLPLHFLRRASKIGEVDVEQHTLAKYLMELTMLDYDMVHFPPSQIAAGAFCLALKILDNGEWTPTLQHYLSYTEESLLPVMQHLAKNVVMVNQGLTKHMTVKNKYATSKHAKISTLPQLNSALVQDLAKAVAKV
# protocol-details: Cyclin B1-CDK1 kinase inhibition test
# Type: biochemical
# applied-conditions: CDK1 tests (Example 13); recombinant cyclin B1/CDK1, substrate histone H1; read-out: CDK1/cyclinB1 IC50 value
pIC50: −log10 of the molar value.

Illustrative cases are given below, each with its answer.
NCC1CCC(CNc2nc(Nc3ccccc3)ncc2C(F)(F)F)CC1 (centres unmarked) ... > 7.00
CC(C)COC(=O)NCCCNc1nc(Nc2ccc3cnn(C)c3c2)ncc1C(F)(F)F ... > 7.00
CC(=O)NCCNc1nc(Nc2ccc(Cl)c(C(F)(F)F)c2)ncc1C(F)(F)F ... > 7.00
CC(=O)NCCNc1nc(Nc2ccc(N)cc2)ncc1C(F)(F)F ... > 7.00
O=[N+]([O-])c1cnc(Nc2ccc(F)c(Cl)c2)nc1N1CCc2[nH]cnc2C1 ... > 7.00

In: Enter pIC50 (test system CDK1/cyclinB1 (Homo sapiens, UniProt P06493)) for CC(=O)NCCNc1nc(Nc2ccc(NS(=O)(=O)c3ccccc3)cc2)ncc1C(F)(F)F
Out: > 7.00

In: Enter pIC50 (test system CDK1/cyclinB1 (Homo sapiens, UniProt P06493)) for O=C1CCCN1CCCNc1nc(Nc2cc(Cl)cc(Cl)c2)ncc1C(F)(F)F
Out: > 7.00

In: Enter pIC50 (test system CDK1/cyclinB1 (Homo sapiens, UniProt P06493)) for O=C1CCCN1CCCNc1nc(Nc2ccc(CO)cc2)ncc1C(F)(F)F
Out: > 7.00
